Test: self-splicing fitness, log relative to wild type (ln ratio); higher = more splicing; Tetrahymena group I intron in knt gene, E. coli kanamycin selection, DiMSum; sequences stand for … in CUCUCU…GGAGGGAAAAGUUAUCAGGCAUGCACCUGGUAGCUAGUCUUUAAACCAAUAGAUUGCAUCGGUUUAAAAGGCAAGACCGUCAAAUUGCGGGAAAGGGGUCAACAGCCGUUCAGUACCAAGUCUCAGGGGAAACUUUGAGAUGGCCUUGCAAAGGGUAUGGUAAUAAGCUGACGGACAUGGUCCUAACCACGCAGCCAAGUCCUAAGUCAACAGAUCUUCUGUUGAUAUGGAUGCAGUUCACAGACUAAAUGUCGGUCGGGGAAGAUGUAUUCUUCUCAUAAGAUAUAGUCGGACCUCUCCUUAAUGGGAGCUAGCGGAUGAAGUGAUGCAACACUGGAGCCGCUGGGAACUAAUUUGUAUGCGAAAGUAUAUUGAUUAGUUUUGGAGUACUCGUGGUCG;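 note: selection with 25 µg/mL kanamycin versus none on LB agar overnight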
Settings: 30 °C
Label 0 if self-splicing fitness (ln) falls below -2; label 1 in every other case.

Look over these answered cases.
INSERT INTO results (macromolecule_sequence, group_label) VALUES
  ('GCUUAGCAAUAUUACGCCAG', 1),
  ('AGGAAGCAAUAUUACGCACA', 1),
  ('CAGAAGCAAUAUUACGUUCU', 0),
  ('AAAUAGCAAUAUUACGGAUA', 0),
  ('ACAGAGCAAUAUUACGUUCC', 0);

Tell me whether self-splicing fitness (ln) is at least -2 here: `CGAUAGCAAUAUUACGCAUU` 1

hey, is self-splicing fitness (ln) for this one >= -2? `CCGGAGCAAUAUUACGGCAA` 1

Would you say `CUGGAGCAAUAUUACGGGCG` shows self-splicing fitness (ln) at minimum -2? 1

Does the reported self-splicing fitness (ln) for `GUUGAGCAAUAUUACGCUAA` fall at or above the -2 mark? 0

API: above_or_equal(metric=self-splicing fitness (ln), cutoff=-2) for item `AGUUAGCAAUAUUACGAUGC` 1

Check this sequence for self-splicing fitness (ln) at or above -2: `ACACAGCAAUAUUACGGCUA` 1

Determine whether measured self-splicing fitness (ln) meets or exceeds -2 for `AGUGAGCAAUAUUACGUGCG` 0

Assess whether reported self-splicing fitness (ln) for `CACCAGCAAUAUUACGUGGG` sits at -2 or higher. 0

Item `ACACAGCAAUAUUACGAGUU` with self-splicing fitness (ln) of -2 or above? 0

Please indicate if the recorded self-splicing fitness (ln) for `GGCUAGCAAUAUUACGUUCU` meets or exceeds -2. 1

For this sequence, is measured self-splicing fitness (ln) -2 or higher? `CGACAGCAAUAUUACGAAGU` 0

###

Experiment: self-splicing fitness, log relative to wild type (ln ratio); higher = more splicing; Tetrahymena group I intron in knt gene, E. coli kanamycin selection, DiMSum; sequences stand for … in CUCUCU…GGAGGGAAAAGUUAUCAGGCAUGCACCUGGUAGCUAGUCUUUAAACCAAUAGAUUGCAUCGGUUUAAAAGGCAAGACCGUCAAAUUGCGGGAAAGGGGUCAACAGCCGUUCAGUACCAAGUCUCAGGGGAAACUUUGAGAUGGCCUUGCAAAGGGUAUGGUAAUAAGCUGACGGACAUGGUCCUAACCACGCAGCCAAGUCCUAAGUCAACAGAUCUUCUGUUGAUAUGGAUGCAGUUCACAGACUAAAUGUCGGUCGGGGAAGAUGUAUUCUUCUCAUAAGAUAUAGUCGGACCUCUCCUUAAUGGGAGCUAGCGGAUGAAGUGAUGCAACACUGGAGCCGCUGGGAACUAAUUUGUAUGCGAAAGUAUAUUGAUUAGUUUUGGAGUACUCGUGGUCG
Conditions: 37 °C
Readings of self-splicing fitness (ln) for the listed sequences
Keep it simple and answer with nothing but the number.

These solved cases illustrate the format of a correct answer.
INSERT INTO results (macromolecule_sequence, test_value) VALUES
  ('AGCAAGCAAUAUUACGCUAU', -2.25),
  ('AUCCAGCAAUAUUACGUGUG', -0.983);

Report self-splicing fitness (ln), nothing else, for this sequence: `AUGUAGCAAUAUUACGUUCC` -0.942

Return self-splicing fitness (ln) for the following sequence: `UGCUAGCAAUAUUACGUUUA` -1.27
